EXPERIMENTAL_TARGET: NS3-NS4 (Hepatitis C virus genotype 1a, UniProt P27958)
Sequence (P27958 1027-1657): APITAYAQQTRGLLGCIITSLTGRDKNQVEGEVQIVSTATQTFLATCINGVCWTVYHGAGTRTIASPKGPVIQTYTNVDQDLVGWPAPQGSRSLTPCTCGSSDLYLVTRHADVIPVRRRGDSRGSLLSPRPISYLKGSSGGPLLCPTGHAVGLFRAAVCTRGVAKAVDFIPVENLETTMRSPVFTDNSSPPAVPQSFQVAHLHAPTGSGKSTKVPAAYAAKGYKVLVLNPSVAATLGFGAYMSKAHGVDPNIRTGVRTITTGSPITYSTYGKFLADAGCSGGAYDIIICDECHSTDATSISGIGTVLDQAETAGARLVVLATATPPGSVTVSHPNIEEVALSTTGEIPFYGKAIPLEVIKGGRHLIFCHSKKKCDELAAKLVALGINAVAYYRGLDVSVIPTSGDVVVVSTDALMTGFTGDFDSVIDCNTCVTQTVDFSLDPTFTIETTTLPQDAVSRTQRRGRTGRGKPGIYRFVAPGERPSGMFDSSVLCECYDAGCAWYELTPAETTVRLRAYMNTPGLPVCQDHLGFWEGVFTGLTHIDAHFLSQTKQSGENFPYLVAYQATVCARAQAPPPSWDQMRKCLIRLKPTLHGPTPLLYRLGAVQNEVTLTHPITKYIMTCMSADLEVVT
Sequence (P27958 1658-1711): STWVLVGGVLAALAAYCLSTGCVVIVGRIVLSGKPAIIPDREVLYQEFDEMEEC
EXPERIMENTAL_DETAILS: cell-based
TEST_CONTEXT: EC50, NS3-NS4 activity
pEC50: −log10 of the molar value.
Measured pEC50 of individual entries

{"COMPOUND": "CC(C)(C)OC(=O)N[C@H]1CCCCCCC[C@@H]2C[C@@]2(C(=O)NS(=O)(=O)c2cc3ccccc3o2)NC(=O)[C@@H]2C[C@@H](OC(=O)N3Cc4cccc(F)c4C3)CN2C1=O [Compound 648]", "EXPERIMENTAL_TARGET": "NS3-NS4 (Hepatitis C virus genotype 1a, UniProt P27958)", "pEC50": "6.00 to 7.00"}
{"COMPOUND": "CCCS(=O)(=O)NC(=O)[C@@]12C[C@H]1/C=C\\CCCCC[C@H](NC(=O)OC(C)(C)C)C(=O)N1C[C@H](OC(=O)N3Cc4cccc(F)c4C3)C[C@H]1C(=O)N2 [Compound 550]", "EXPERIMENTAL_TARGET": "NS3-NS4 (Hepatitis C virus genotype 1a, UniProt P27958)", "pEC50": "> 7.00"}
{"COMPOUND": "CN(C(=O)N[C@H]1CCCCC/C=C\\[C@@H]2C[C@@]2(C(=O)NS(=O)(=O)C2CC2)NC(=O)[C@@H]2C[C@@H](OC(=O)N3Cc4cccc(F)c4C3)CN2C1=O)C(C)(C)C [Compound 407]", "EXPERIMENTAL_TARGET": "NS3-NS4 (Hepatitis C virus genotype 1a, UniProt P27958)", "pEC50": "> 7.00"}
{"COMPOUND": "CC(C)(C)COC(=O)N[C@H]1CCCCC/C=C\\[C@@H]2C[C@@]2(C(=O)NS(=O)(=O)C2CC2)NC(=O)[C@@H]2C[C@@H](OC(=O)N3Cc4cccc(F)c4C3)CN2C1=O [Compound 406]", "EXPERIMENTAL_TARGET": "NS3-NS4 (Hepatitis C virus genotype 1a, UniProt P27958)", "pEC50": "> 7.00"}
{"COMPOUND": "O=C1N[C@]2(C(=O)NS(=O)(=O)C3CC3)C[C@H]2/C=C\\CCCCC[C@H](Nc2nc(-c3ccc(Br)cc3)cs2)C(=O)N2C[C@H](OC(=O)N3Cc4cccc(F)c4C3)C[C@@H]12 [Compound 220]", "EXPERIMENTAL_TARGET": "NS3-NS4 (Hepatitis C virus genotype 1a, UniProt P27958)", "pEC50": "> 7.00"}

* * *

EXPERIMENTAL_DETAILS: Single ascending dose study, fasted and fed: safety and non-compartmental plasma PK
Assay type: in vivo, healthy volunteers (human)
TEST_CONTEXT: human, plasma, oral, 100 mg, median; single 100 mg dose, fasting state; plasma; N=8; read-out: Cmax
READOUT_TYPE: Cmax (ng/mL)

{"SMILES_STRING": "CC(C)(C)OC(=O)N[C@H]1CCCCC/C=C\\[C@@H]2C[C@@]2(C(=O)NS(=O)(=O)C2CC2)NC(=O)[C@@H]2C[C@@H](OC(=O)N3Cc4cccc(F)c4C3)CN2C1=O", "VALUE_UNITS": "ng/mL", "ENDPOINT_RESULT": 14.7}

* * *

EXPERIMENTAL_DETAILS: Single ascending dose study, fasted and fed: safety and non-compartmental plasma PK
Format: in vivo, healthy volunteers (human)
TEST_CONTEXT: human, plasma, oral, 1600 mg, Mean of 10 subjects; single 1600 mg dose, Fasted; read-out: t½ (converted)
Protocol: A single ascending dose (SAD) study of the compound 100 was conducted in healthy volunteers. The compound 100 was administered as monotherapy both with and without food. The safety and pharmacokinetic profile of the single dose of the compound 100 was assessed. Interim, blinded data were used for Pharmacokinetic (PK) study relating to food effects. […] The upper and lower limits of quantitation (ULOQ and LLOQ) are 100 and 0.01 ng/mL, respectively. […]

{"SMILES_STRING": "CC(C)(C)OC(=O)N[C@H]1CCCCC/C=C\\[C@@H]2C[C@@]2(C(=O)NS(=O)(=O)C2CC2)NC(=O)[C@@H]2C[C@@H](OC(=O)N3Cc4cccc(F)c4C3)CN2C1=O", "half-life [h]": 2.48}
